Each recorded value in this set is attributed to paper PMC10545790.

# Experimental Protocol: in vitro
# Details: both, human, microsomes, pH 7.4, t1/2: half-time of a metabolic decomposition
Counter-ions that a name gives are not always drawn.
Measurement Name: half-life at 2 µM (h)
Please reply with the bare figure in h and do not write the unit itself.

Query (compound): CC(C)NCC(O)COc1cccc2ccccc12 (racemic) [Propranolol, (+,-) Propranolol hydrochloride] ; field requested: half-life at 2 µM
1.02

====

# Experimental Protocol: Metabolic stability in human liver microsomes
# Details: both, human, liver microsomes (pooled), pH 7.4
Measurement Name: k el at 2 µM (s⁻¹)
Please reply with the bare figure in s⁻¹ and do not write the unit itself.

Query (compound): Cc1ccc(NC(=O)C23CCC(CN4CCN(C)CC4)(CC2)OC3)cc1Nc1nccc(-c2cccnc2)n1 [Compound 85] ; field requested: k el at 2 µM
0.000133

====

# Experimental Protocol: Kinetic solubility in phosphate-buffered saline, pH 7.4
# Details: 25 °C, pH 7.4, aqueous buffer, kinetic from dmso stock
Measurement Name: solubility kinetic at 2 h
Your answer should be a number followed by the unit of measure.

Query (molecule): Cc1ccc(NC(=O)C23CCC(CN4CCN(C)CC4)(CC2)CC3)cc1Nc1nccc(-c2cccnc2)n1 ; field requested: solubility kinetic at 2 h
113 µM

Query (molecule): Cc1ccc(NC(=O)C23CCC(CN4CCN(C)CC4)(CC2)OC3)cc1Nc1nccc(-c2cccnc2)n1 ; field requested: solubility kinetic at 2 h
389 µM

====

# Experimental Protocol: Metabolic stability in human liver microsomes
# Details: both, human, liver microsomes (pooled), pH 7.4, t1/2: half-time of a metabolic decomposition, human liver microsomes, 2 μM compound, NADPH, 37 °C
Measurement Name: half-life at 2 µM (min)
Please reply with the bare figure in min and do not write the unit itself.

Query (compound): Cc1ccc(NC(=O)C23CCC(CN4CCN(C)CC4)(CC2)CC3)cc1Nc1nccc(-c2cccnc2)n1 ; field requested: half-life at 2 µM
107

Query (compound): Cc1ccc(NC(=O)C23CCC(CN4CCN(C)CC4)(CC2)OC3)cc1Nc1nccc(-c2cccnc2)n1 ; field requested: half-life at 2 µM
87

====

# Experimental Protocol: in vitro
# Details: both, human, microsomes, pH 7.4, % Remaining without cofactor, Mean of 2
Measurement Name: remaining at 40 min, 2 µM

Query (molecule): Cc1ccc(NC(=O)c2ccc(CN3CCN(C)CC3)cc2)cc1Nc1nccc(-c2cccnc2)n1 ; field requested: remaining at 40 min, 2 µM
88%

====

# Experimental Protocol: in vitro
# Details: both, human, microsomes, pH 7.4, % Remaining, Mean of 2
Measurement Name: remaining at 25 min, 2 µM (%)
Please reply with the bare figure in % and do not write the unit itself.

Query (compound): Cc1ccc(NC(=O)c2ccc(CN3CCN(C)CC3)cc2)cc1Nc1nccc(-c2cccnc2)n1 ; field requested: remaining at 25 min, 2 µM
82

====

# Experimental Protocol: in vitro
# Details: both, human, microsomes, pH 7.4, % Remaining, Mean of 2
Measurement Name: remaining at 0.25 h, 2 µM (%)
Please reply with the bare figure in % and do not write the unit itself.

Query (compound): Cc1ccc(NC(=O)c2ccc(CN3CCN(C)CC3)cc2)cc1Nc1nccc(-c2cccnc2)n1 [Imatinib] ; field requested: remaining at 0.25 h, 2 µM
93

====

# Experimental Protocol: Metabolic stability in human liver microsomes
# Details: both, human, liver microsomes (pooled), pH 7.4, % Remaining, Mean of 2, human liver microsomes with NADPH, 40 min
Measurement Name: remaining at 40 min, 2 µM
Your answer should be a number followed by the unit of measure.

Query (compound): Cc1ccc(NC(=O)C23CCC(CN4CCN(C)CC4)(CC2)CC3)cc1Nc1nccc(-c2cccnc2)n1 [Compound 86] ; field requested: remaining at 40 min, 2 µM
81%

Query (compound): Cc1ccc(NC(=O)C23CCC(CN4CCN(C)CC4)(CC2)OC3)cc1Nc1nccc(-c2cccnc2)n1 [Compound 85] ; field requested: remaining at 40 min, 2 µM
73%

====

# Experimental Protocol: Kinetic solubility in phosphate-buffered saline, pH 7.4
# Details: pH 7.4
Measurement Name: solubility kinetic at 2 h (µM)
Please reply with the bare figure in µM and do not write the unit itself.

Query (molecule): Cc1nccn1CC1CCc2c(c3ccccc3n2C)C1=O (stereo not shown) [Ondansetron, reference compound] ; field requested: solubility kinetic at 2 h
126

====

# Experimental Protocol: Metabolic stability in human liver microsomes
# Details: both, human, liver microsomes (pooled), pH 7.4, % Remaining, Mean of 2, human liver microsomes with NADPH, 15 min
Provide the recorded remaining at 0.25 h, 2 µM for the entries that follow.
Please reply with the bare figure in % and do not write the unit itself.

Query (compound): Cc1ccc(NC(=O)C23CCC(CN4CCN(C)CC4)(CC2)CC3)cc1Nc1nccc(-c2cccnc2)n1 [Compound 86] ; field requested: remaining at 0.25 h, 2 µM
96

Query (compound): Cc1ccc(NC(=O)C23CCC(CN4CCN(C)CC4)(CC2)OC3)cc1Nc1nccc(-c2cccnc2)n1 [Compound 85] ; field requested: remaining at 0.25 h, 2 µM
98

====

Provide the recorded remaining at 40 min, 2 µM for the entries that follow.
# Experimental Protocol: in vitro
# Details: both, human, microsomes, pH 7.4, % Remaining, Mean of 2
Structures can show the parent of a compound that is named as a salt.

Query (compound): CC(C)NCC(O)COc1cccc2ccccc12 (racemic) [Propranolol, (+,-) Propranolol hydrochloride] ; field requested: remaining at 40 min, 2 µM
66%

Query (compound): Cc1ccc(NC(=O)c2ccc(CN3CCN(C)CC3)cc2)cc1Nc1nccc(-c2cccnc2)n1 ; field requested: remaining at 40 min, 2 µM
66%

====

# Experimental Protocol: physchem
# Details: pH 7.4, logD (7.4): experimental distribution coefficient in n-octanol/phosphate-buffered saline
Provide the recorded logD for the entries that follow.
Keep it simple and answer with nothing but the number.

Query (molecule): Cc1ccc(NC(=O)C23CCC(CN4CCN(C)CC4)(CC2)OC3)cc1Nc1nccc(-c2cccnc2)n1 [Compound 85] ; field requested: logD
1.8

Query (molecule): Cc1ccc(NC(=O)C23CCC(CN4CCN(C)CC4)(CC2)CC3)cc1Nc1nccc(-c2cccnc2)n1 [Compound 86] ; field requested: logD
2.7

====

Provide the recorded pKa for the entries that follow.
# Experimental Protocol: Determination of pKa values (potentiometric titration)
# Type: physicochemical
# Details: methanol-water (1:4) solution of NaCl; titration method; potentiometric acid-base titration at 25 °C in methanol-water (1:4), 150 mM NaCl; read-out: pKa (exp.)
Keep it simple and answer with nothing but the number.

Query (compound): Cc1ccc(C(=O)O)cc1 [Compound 83, para-methyl benzoic acid, reference compound] ; field requested: pKa
4.5

Query (compound): CC12CCC(C(=O)O)(CC1)CC2 [Compound 84, reference compound] ; field requested: pKa
5.6

Query (compound): CC12CCC(C(=O)O)(CC1)CO2 ; field requested: pKa
4.4

Query (compound): CC12CCC(C(=O)O)(CC1)OC2 ; field requested: pKa
4.1

====

# Experimental Protocol: Metabolic stability in human liver microsomes
# Details: both, human, liver microsomes (pooled), pH 7.4, % Remaining without cofactor, Mean of 2, human liver microsomes, NADPH-cofactor system substituted with phosphate buffer, 40 min
Measurement Name: remaining at 40 min, 2 µM (%)
Please reply with the bare figure in % and do not write the unit itself.

Query (molecule): Cc1ccc(NC(=O)C23CCC(CN4CCN(C)CC4)(CC2)OC3)cc1Nc1nccc(-c2cccnc2)n1 ; field requested: remaining at 40 min, 2 µM
118

Query (molecule): Cc1ccc(NC(=O)C23CCC(CN4CCN(C)CC4)(CC2)CC3)cc1Nc1nccc(-c2cccnc2)n1 ; field requested: remaining at 40 min, 2 µM
106

====

# Experimental Protocol: in vitro
# Details: both, human, pH 7.4, kel (elimination constant)
Structures can show the parent of a compound that is named as a salt.
Measurement Name: k el at 2 µM
Your answer should be a number followed by the unit of measure.

Query (compound): CC(C)NCC(O)COc1cccc2ccccc12 (racemic) [Propranolol, (+,-) Propranolol hydrochloride] ; field requested: k el at 2 µM
0.000183 s⁻¹
